SYSTEM: F508delCFTR (Homo sapiens, UniProt P13569, DEL508-508)
Construct: expressed in transfected cells; host or cells: CFBE41o- human lung-derived epithelial cells (CFBE4lo-F508delCFTR-HRP), doxycycline-inducible
Sequence (P13569 with tags, fused parts or gaps DEL508-508): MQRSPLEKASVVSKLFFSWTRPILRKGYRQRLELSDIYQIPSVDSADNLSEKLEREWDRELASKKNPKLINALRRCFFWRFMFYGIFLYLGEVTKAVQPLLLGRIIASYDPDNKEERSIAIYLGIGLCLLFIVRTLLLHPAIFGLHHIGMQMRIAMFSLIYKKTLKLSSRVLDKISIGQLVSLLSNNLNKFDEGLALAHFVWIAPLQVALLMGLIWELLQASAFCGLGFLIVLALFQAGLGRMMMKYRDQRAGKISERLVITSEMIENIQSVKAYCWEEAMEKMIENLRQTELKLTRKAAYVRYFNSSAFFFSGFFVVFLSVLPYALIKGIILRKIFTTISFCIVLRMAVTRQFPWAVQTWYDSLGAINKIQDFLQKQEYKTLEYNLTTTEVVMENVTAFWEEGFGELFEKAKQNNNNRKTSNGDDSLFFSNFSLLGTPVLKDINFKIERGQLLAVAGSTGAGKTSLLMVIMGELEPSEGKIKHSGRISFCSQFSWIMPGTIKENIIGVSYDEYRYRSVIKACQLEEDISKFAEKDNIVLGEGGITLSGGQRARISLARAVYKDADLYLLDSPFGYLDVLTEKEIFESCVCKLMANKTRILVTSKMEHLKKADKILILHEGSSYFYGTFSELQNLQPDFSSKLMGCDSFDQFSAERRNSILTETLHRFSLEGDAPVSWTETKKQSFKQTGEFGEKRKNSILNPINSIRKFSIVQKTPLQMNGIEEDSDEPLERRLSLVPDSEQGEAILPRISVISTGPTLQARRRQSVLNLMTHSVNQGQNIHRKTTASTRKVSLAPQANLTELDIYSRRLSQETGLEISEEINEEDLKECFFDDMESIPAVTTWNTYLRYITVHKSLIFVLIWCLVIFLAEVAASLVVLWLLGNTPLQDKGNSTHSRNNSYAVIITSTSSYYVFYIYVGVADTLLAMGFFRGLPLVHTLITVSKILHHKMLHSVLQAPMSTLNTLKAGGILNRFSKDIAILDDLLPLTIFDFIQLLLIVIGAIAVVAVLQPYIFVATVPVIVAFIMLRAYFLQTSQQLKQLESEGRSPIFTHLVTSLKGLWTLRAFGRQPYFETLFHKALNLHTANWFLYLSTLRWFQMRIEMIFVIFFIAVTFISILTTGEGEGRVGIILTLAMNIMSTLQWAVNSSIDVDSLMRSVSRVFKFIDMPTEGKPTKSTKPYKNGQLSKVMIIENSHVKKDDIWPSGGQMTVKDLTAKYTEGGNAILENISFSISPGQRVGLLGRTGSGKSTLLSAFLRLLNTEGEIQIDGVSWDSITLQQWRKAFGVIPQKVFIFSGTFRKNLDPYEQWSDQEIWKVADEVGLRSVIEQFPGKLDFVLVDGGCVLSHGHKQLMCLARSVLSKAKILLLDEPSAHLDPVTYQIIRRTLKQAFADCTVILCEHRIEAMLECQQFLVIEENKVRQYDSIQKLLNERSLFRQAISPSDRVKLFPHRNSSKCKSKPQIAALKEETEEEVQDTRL
PROTOCOL NOTES: Cell Surface Expression-Horse Radish Peroxidase (CSE-HRP) Assay;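 note: percent of the 2 µM on-plate positive control corrector response above DMSO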
Assay type: cell-based
RUN PARAMETERS: without co-corrector; maximum at any tested concentration, normalized to on-plate positive control; read-out: Maximum % activity (without co-corrector)
READOUT LABEL: Emax

Example entries begin here.
COc1cc(C(F)(F)F)ccc1CN[C@H]1[C@H](C(C)(C)C)[C@@H](C(=O)O)N(C(=O)C(C)c2ccccc2)[C@H]1c1ccccc1 (relative stereo) [Example 11] : 100 to 200%
COc1ccc(C2(C(F)(F)F)CC2)nc1CN[C@H]1[C@H](C(C)(C)C)[C@@H](C(=O)O)N(C(=O)C2CCCCC2)[C@H]1c1ccccc1 [Example I-170] : < 100%

From here, focus on the item given below.
Give a short answer stating reported Emax for COc1nc(C(C)(C)C)ccc1CN[C@H]1[C@H](C(C)(C)C)[C@@H](C(=O)O)N(C(=O)C2CCCC(OC)C2)[C@H]1c1ccccc1 (stereo partly drawn) [Example I-197] .
> 200%
